Target: high affinity nicotinic receptors
Assay: Inhibition of L-[3H]nicotine binding to mouse brain membrane preparations
Conditions: 10 nM L-[3H]nicotine, 2 hr at 4° C., mouse brain membranes, Ki calculated from IC50 by method of Cheng et al.
assayMetric: Ki (µM)

[[record]]
molecule = "CN1CCCC1c1ccccc1 (racemic)"
resultnumber = 3.5

